System: rat uterus
PROTOCOL NOTES: Spontaneous contractions of rat uterus in organ bath (naturally-cycling rats)
CONDITIONS USED: Table 1, rat uterus model, NSAIDs; read-out: ED50 Spontaneous contractions
Protocol: To examine the potential benefit of PLA2 inhibitors in treating dysmenorrhoea in women, an in vitro model was developed which measured the force and frequency of contractions in a rat uterus. […] Uteri were removed from rats, divided into 4 segments and placed in organ baths to measure force and frequency of contraction. Spontaneous contractions were measured, then each segment of uterus was challenged with oxytocin (1 μI.U. to 100 mI.U.). […]

{"MOLECULE": "Cc1c(Nc2ncccc2C(=O)O)cccc1C(F)(F)F [Flunixin, flunixin meglumine, reference compound]", "STUDY SYSTEM": "rat uterus", "EC50": "1000 nM"}

---

System: rat uterus
PROTOCOL NOTES: Oxytocin-induced contractions of rat uterus in organ bath (naturally-cycling rats)
CONDITIONS USED: Rattus norvegicus; FIG. 5, n=3; read-out: ED50, uterine contractions induced by oxytocin
pEC50: −log10 of the molar value.

{"MOLECULAR STRING": "O=C(O)CC[C@@H](CSc1ccc(Cc2ccccc2)cc1)NC(=O)CCCCCCc1ccccc1", "STUDY SYSTEM": "rat uterus", "pEC50": 7.70}
